Test system: Jurkat
Experiment: cells
Conditions: Homo sapiens, 48 h
Description: Immunosuppressive activity in human Jurkat cells assessed as reduction in PHA + PMA-induced IL-2 production after 48 hrs by ELISA
pIC50: −log10 of the molar value.
In this section, each of the molecules is paired with its reported pIC50.

# count of solved cases: 2
molecule: COc1ccc(-c2cc(=O)c3c(O)c(OC)c(O)cc3o2)cc1 [PECTOLINARIGENIN]
pIC50: < 4.70

molecule: COc1ccc(-c2cc(=O)c3cc(OC)c(O)c([C@H]4CCC(=O)N4)c3o2)cc1
pIC50: 4.78

Memo: `COc1ccc(-c2cc(=O)c3cc(OC)c(O)c([C@@H]4CCC(=O)N4)c3o2)cc1` , reported pIC50: < 4.70
